From: the Immune Epitope Database (IEDB)

- target under test: HLA-A*02:03
- protocol description: IEDB peptide-MHC binding, purified MHC/competitive/radioactivity; filed as Kd, often an IC50 or EC50 that approximates it; bounds were set here for any values at or beyond the usual limits of such assays
- settings: source organism: Hepatitis C virus (isolate BK)

[
  {
    "seq string": "CVNGVCWTV",
    "target under test": "HLA-A*02:03",
    "Kd": "2.08 µM"
  }
]

* * *

- target under test: HLA-B*44:02
- protocol description: IEDB peptide-MHC binding, purified MHC/competitive/fluorescence; filed as Kd, often an IC50 or EC50 that approximates it; bounds were set here for any values at or beyond the usual limits of such assays
- settings: source organism: Escherichia coli O139:H28 str. E24377A
pKd: −log10 of the molar value.

[
  {
    "seq string": "WSILRQRCW",
    "pKd": "≤ 4.70"
  }
]

* * *

- target under test: HLA-A*23:01
- protocol description: IEDB peptide-MHC binding, purified MHC/competitive/radioactivity; filed as Kd, often an IC50 or EC50 that approximates it; bounds were set here for any values at or beyond the usual limits of such assays
- settings: source organism: Dengue virus 3 Martinique/1243/1999
assay metric: Kd (nM)

[
  {
    "seq string": "PWLKNNQFCI",
    "assay metric": "Kd",
    "reading": 102
  },
  {
    "seq string": "NYILWENNI",
    "assay metric": "Kd",
    "reading": 6.03
  },
  {
    "seq string": "WYMWLGARYL",
    "assay metric": "Kd",
    "reading": 18.2
  }
]

* * *

- target under test: HLA-B*53:01
- protocol description: IEDB peptide-MHC binding, purified MHC/competitive/fluorescence; filed as Kd, often an IC50 or EC50 that approximates it; bounds were set here for any values at or beyond the usual limits of such assays
- settings: source organism: Entamoeba dispar SAW760

[
  {
    "seq string": "SQYDPKELL",
    "Kd": "≥ 5 µM"
  }
]

* * *

- target under test: HLA-A*68:01
- protocol description: IEDB peptide-MHC binding, purified MHC/competitive/radioactivity; filed as Kd, often an IC50 or EC50 that approximates it; bounds were set here for any values at or beyond the usual limits of such assays
- settings: source organism: Vaccinia virus Copenhagen
assay metric: Kd (nM)

[
  {
    "seq string": "NTFPNITLK",
    "assay metric": "Kd",
    "unit abbreviation": "nM",
    "reading": 0.779
  }
]

* * *

- target under test: HLA-A*26:01
- protocol description: IEDB peptide-MHC binding, purified MHC/competitive/radioactivity; filed as Kd, often an IC50 or EC50 that approximates it; bounds were set here for any values at or beyond the usual limits of such assays
- settings: source organism: Dengue virus 1 Brazil/97-11/1997

[
  {
    "seq string": "ELCEDTMTY",
    "Kd (µM)": 1.74
  }
]

* * *

- target under test: HLA-A*33:01
- protocol description: IEDB peptide-MHC binding, purified MHC/competitive/radioactivity; filed as Kd, often an IC50 or EC50 that approximates it; bounds were set here for any values at or beyond the usual limits of such assays
- settings: source organism: Vaccinia virus WR
pKd: −log10 of the molar value.
Recorded pKd values for a group of sequences are listed next.
assay metric: pKd

[
  {
    "seq string": "FADNDRQDIY",
    "target under test": "HLA-A*33:01",
    "assay metric": "pKd",
    "reading": "≤ 4.15"
  },
  {
    "seq string": "HILHAYCGIK",
    "target under test": "HLA-A*33:01",
    "assay metric": "pKd",
    "reading": "≤ 4.15"
  },
  {
    "seq string": "KFNDYRKQMY",
    "target under test": "HLA-A*33:01",
    "assay metric": "pKd",
    "reading": "≤ 4.23"
  },
  {
    "seq string": "RLNNPVILSK",
    "target under test": "HLA-A*33:01",
    "assay metric": "pKd",
    "reading": "≤ 4.26"
  },
  {
    "seq string": "KINSVKYYGR",
    "target under test": "HLA-A*33:01",
    "assay metric": "pKd",
    "reading": 5.62
  },
  {
    "seq string": "TSEKYSKGY",
    "target under test": "HLA-A*33:01",
    "assay metric": "pKd",
    "reading": "≤ 4.11"
  },
  {
    "seq string": "KATTQIAPK",
    "target under test": "HLA-A*33:01",
    "assay metric": "pKd",
    "reading": "≤ 4.41"
  },
  {
    "seq string": "ILSKWHTSAR",
    "target under test": "HLA-A*33:01",
    "assay metric": "pKd",
    "reading": 6.40
  },
  {
    "seq string": "SIRPRVTKQY",
    "target under test": "HLA-A*33:01",
    "assay metric": "pKd",
    "reading": "≤ 4.15"
  },
  {
    "seq string": "DAYNIADAAR",
    "target under test": "HLA-A*33:01",
    "assay metric": "pKd",
    "reading": 9.09
  },
  {
    "seq string": "LLAISAVYFK",
    "target under test": "HLA-A*33:01",
    "assay metric": "pKd",
    "reading": 5.99
  }
]
